System Tested: FABP3 (Homo sapiens, UniProt P05413)
Construct: made in house; host or cells: E. coli BLR(DE3), pET28a-derived vector (NdeI/XhoI), synthetic gene (Invitrogen GeneArt)
Sequence (P05413 whole entry): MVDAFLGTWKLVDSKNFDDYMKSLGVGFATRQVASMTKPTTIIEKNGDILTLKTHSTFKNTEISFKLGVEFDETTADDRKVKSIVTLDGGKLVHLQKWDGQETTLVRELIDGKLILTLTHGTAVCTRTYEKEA
Method: Quartz crystal microbalance (QCM) binding assay to immobilized FABP3
Ends that are not written are not given here.
The following sequences are listed with their measured Kd values.
Observable: Kd (nM)

| Chain Sequence | Endpoint Value |
| --- | --- |
| EEGYQDYEPEA [αSynP130-140] | 6.1 |
| EEGFQDWEPEA [αSynP130-140 Y133F/Y136W] | 6.1 |

---

System Tested: FABP3 (Homo sapiens)
Construct: made in house; host or cells: E. coli BLR(DE3), pET28a-derived vector (NdeI/XhoI), synthetic gene (Invitrogen GeneArt)
Method: Quartz crystal microbalance (QCM) binding assay to immobilized FABP3
Assay Setup: QCM, immobilized His6-FABP3, 50 mM Tris-HCl pH 7.4, room temperature; kobs = koff + kon[αSyn]; read-out: koff
Ends that are not written are not given here.
I'd appreciate it if you marked entries class 1 when koff is lower than 0.002 s⁻¹ and class 0 when it is not.

| Chain Sequence | System Tested | Cat |
| --- | --- | --- |
| EEGFQDYEPEA [αSynP130-140Y133F] | FABP3 (Homo sapiens) | class 1 |
| EEGWQDWEPEA [αSynP130-140Y133W/Y136W] | FABP3 (Homo sapiens) | class 1 |
| EEGFQDFEPEA [αSynP130-140 Y133F/Y136F] | FABP3 (Homo sapiens) | class 1 |
| EEGYQDWEPEA [αSynP130-140Y136W] | FABP3 (Homo sapiens) | class 0 |
| EEGFQDWEPEA [αSynP130-140 Y133F/Y136W] | FABP3 (Homo sapiens) | class 1 |
| EEGYQDYEPEA [αSynP130-140] | FABP3 (Homo sapiens) | class 1 |
| EEGYQDFEPEA [αSynP130-140Y136F] | FABP3 (Homo sapiens) | class 0 |

---

System Tested: FABP3 (Homo sapiens, UniProt P05413)
Construct: made in house; host or cells: E. coli BLR(DE3), pET28a-derived vector (NdeI/XhoI), synthetic gene (Invitrogen GeneArt)
Method: Quartz crystal microbalance (QCM) binding assay to immobilized FABP3
Observable: Kd (nM)

| Compound | System Tested | Result Unit | Endpoint Value |
| --- | --- | --- | --- |
| CCCCC/C=C\C/C=C\C/C=C\C/C=C\CCCC(=O)O [arachidonic acid, reference compound] | FABP3 (Homo sapiens, UniProt P05413) | nM | 6.8 |

---

System Tested: FABP3 F16S (Homo sapiens, UniProt P05413, F17S)
Sequence (P05413 whole entry F17S): as the sequence (P05413 whole entry) above, with F17S counted along it
Method: QCM binding assay to immobilized FABP3 F16S mutant
Observable: Kd (µM)

| Compound | Endpoint Value |
| --- | --- |
| CCCCC/C=C\C/C=C\C/C=C\C/C=C\CCCC(=O)O [arachidonic acid, reference compound] | 2.09 |

---

System Tested: FABP3 (Homo sapiens)
Construct: made in house; host or cells: E. coli BLR(DE3), pET28a-derived vector (NdeI/XhoI), synthetic gene (Invitrogen GeneArt)
Method: Quartz crystal microbalance (QCM) binding assay to immobilized FABP3
Assay Setup: QCM, immobilized His6-FABP3, 50 mM Tris-HCl pH 7.4, room temperature; kobs = koff + kon[αSyn]
Ends that are not written are not given here.
kon values by entry
Observable: kon

| Chain Sequence | System Tested | Endpoint Value |
| --- | --- | --- |
| EEGYQDFEPEA [αSynP130-140Y136F] | FABP3 (Homo sapiens) | 4.8 × 10^5 M^−1・s^−1 |
| EEGYQDYEPEA [αSynP130-140] | FABP3 (Homo sapiens) | 2.0 × 10^5 M^−1・s^−1 |
| EEGFQDWEPEA [αSynP130-140 Y133F/Y136W] | FABP3 (Homo sapiens) | 3.2 × 10^5 M^−1・s^−1 |
| EEGWQDWEPEA [αSynP130-140Y133W/Y136W] | FABP3 (Homo sapiens) | 2.4 × 10^5 M^−1・s^−1 |
| EEGFQDFEPEA [αSynP130-140 Y133F/Y136F] | FABP3 (Homo sapiens) | 5.4 × 10^5 M^−1・s^−1 |
| EEGFQDYEPEA [αSynP130-140Y133F] | FABP3 (Homo sapiens) | 7.5 × 10^5 M^−1・s^−1 |
| EEGYQDWEPEA [αSynP130-140Y136W] | FABP3 (Homo sapiens) | 3.8 × 10^5 M^−1・s^−1 |
